Listing: activity, negative = inhibition of selected molecules
- Test: Stat Signaling Pathway (AID 446);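 further: ME-180 cervical cancer cells given 40 pM IL-6 alongside compound; SIE-controlled beta-lactamase reporter measured as 460/530 nm FRET emission ratio; on the % scale 0 is the no-effect control and ±100 the full control effect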
- Condition Label: ME-180 (cervical carcinoma) SIE beta-lactamase reporter, IL-6 stimulated, 5 h; at 7.69 µM (top of the series) unless noted
Results filed as inconclusive are left out.
Measured Endpoint: activity, negative = inhibition (%)

Line Notation | Units Text | Endpoint Result
N#Cc1cccc(NC(=O)N2CC[C@@]3(CCCN(S(=O)(=O)c4ccccc4)C3)C2)c1 | % | -7.29
O=S(=O)(c1ccccc1)N1CCC2(CCN(c3cccc(-c4ccccc4)c3)CC2)CC1 | % | -8.83
Clc1ccccc1-c1cc(NCCN2CCOCC2)ncn1 | % | 2.93
